Assay: Lipophilicity, log P of the compound
Type: physicochemical
Settings: octanol/water
Catalogue of molecules with associated logP
Enter a number only.

| molecule | logP |
| --- | --- |
| CN=S(=O)(CC(C)NC(=O)c1cc(C#N)cc(C)c1NC(=O)c1cc(Br)nn1-c1ncccc1Cl)NOC (centres undefined) | 1.8 |

GET /values?readout=logP&item= Cc1cc(C#N)cc(C(=O)NC(C)(C)CS(C)(=O)=NC#N)c1NC(=O)c1cc(Br)nn1-c1ncccc1Cl (centres undefined)
1.7

Field entry: CNS(=N)(=O)CC(C)NC(=O)c1cc(C#N)cc(C)c1NC(=O)c1cc(Br)nn1-c1ncccc1Cl (centres undefined)
1.1

Field entry: Cc1cc(Cl)cc(C(=O)NC(C)(C)CS(C)(=O)=NC#N)c1NC(=O)c1cc(C(F)(F)F)nn1-c1ncccc1Cl (centres undefined)
2.9

These data points were gathered from ChEMBL document CHEMBL3045841.
